Assay: inhibitors of E-selectin induction by TNFa, primary screen, imaging, HUVEC, immunofluorescence, MLSMR starter and 10KST1 sets (AID 487);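 note: 100% = median nuclei count of all wells on the same plate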
Settings: HUVEC TNFalpha-induced E-selectin immunofluorescence imaging, at 2 µM; measured here: cell number, toxicity

# Compound, nuclei count (%)
rows = [
    ("O=C(COc1ccc2ccccc2c1)N1CCCC1", 97.9),
    ("O=C(Nc1ccc(N2C(=O)C3C4C=CC(C4)C3C2=O)cc1)Nc1nncs1 (stereo unspecified)", 125),
    ("CC1(C(=O)CSc2ncn[nH]2)CCC(=O)O1 (stereo unspecified)", 93.2),
    ("CCOc1cc(C(=O)NCc2nnc(SCC(=O)OC)n2C)cc(OCC)c1OCC", 101),
    ("O=c1[nH]c(CN(CCO)CCO)nc2c1C1(CCCCC1)Cc1ccccc1-2", 181),
    ("Cc1coc2cc3oc(=O)c4c(c3cc12)CCC4", 135),
]

All values here come from PubChem BioAssay.
